- ASSAY SYSTEM: T1, human EphB1 (Homo sapiens, UniProt P54762)
- T1 construct: a protein of the extracellular region of each human Eph receptor fused with the SEAP protein and the His tag; made in house; host or cells: Expi293F cells (culture supernatant)
- T1 sequence (P54762 18-540 limits assumed): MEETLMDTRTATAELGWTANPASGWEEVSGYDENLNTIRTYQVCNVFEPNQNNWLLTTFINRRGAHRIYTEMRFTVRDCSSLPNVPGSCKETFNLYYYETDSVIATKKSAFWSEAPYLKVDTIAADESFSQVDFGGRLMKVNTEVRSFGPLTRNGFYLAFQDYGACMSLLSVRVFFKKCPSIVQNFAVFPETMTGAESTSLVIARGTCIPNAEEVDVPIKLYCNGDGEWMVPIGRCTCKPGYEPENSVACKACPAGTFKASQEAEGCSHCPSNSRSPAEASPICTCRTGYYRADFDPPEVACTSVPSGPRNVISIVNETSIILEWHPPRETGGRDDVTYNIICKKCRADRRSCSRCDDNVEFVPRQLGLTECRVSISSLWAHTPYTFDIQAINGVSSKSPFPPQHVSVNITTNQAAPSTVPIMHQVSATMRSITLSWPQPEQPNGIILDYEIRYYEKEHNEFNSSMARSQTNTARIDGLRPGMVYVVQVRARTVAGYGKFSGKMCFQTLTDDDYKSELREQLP
- RUN DESCRIPTION: Selectivity ELISA of humanized antibodies for human Eph receptor
- Format: binding
- CONDITION CONTEXT: coated protein 1 nM
- From the text: According to the method described in Example 7, a DNA sequence encoding the signal sequence and the extracellular region of each human Eph receptor (EphA1, EphA2, EphA3, EphA4, EphA5, EphA6, EphA7, EphA8, EphA10, EphB1, EphB2, EphB3, EphB4, and EphB6) was amplified by RT-PCR using tissue-derived total RNA and cloned into a pENTR1A vector (Invitrogen/Life Technologies) having a DNA sequence encoding SEAP protein and histidine tag. […]
MEASUREMENT LABEL: hEphB1-SEAP-: absorbance at 450 nm, percentage with respect to hEphA4-SEAP-His as 100%
Your answer should be a number followed by the unit of measure.

136 (antibody, V domains shown, synthetic humanized antibody heavy chain variable region sequence; synthetic humanized antibody light chain variable region sequence) VH: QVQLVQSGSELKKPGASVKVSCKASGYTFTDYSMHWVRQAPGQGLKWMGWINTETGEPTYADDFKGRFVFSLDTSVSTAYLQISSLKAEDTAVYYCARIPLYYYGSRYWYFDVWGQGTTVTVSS VL: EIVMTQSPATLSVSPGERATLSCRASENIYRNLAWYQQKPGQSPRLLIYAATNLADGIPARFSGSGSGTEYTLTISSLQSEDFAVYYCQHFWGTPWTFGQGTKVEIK: 5.2%
94 (antibody, V domains shown, constant regions without entry; synthetic humanized antibody light chain variable region sequence; synthetic humanized antibody heavy chain variable region sequence) VL: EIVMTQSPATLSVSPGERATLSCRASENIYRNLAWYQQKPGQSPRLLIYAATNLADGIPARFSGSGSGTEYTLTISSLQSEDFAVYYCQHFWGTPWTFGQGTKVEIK VH: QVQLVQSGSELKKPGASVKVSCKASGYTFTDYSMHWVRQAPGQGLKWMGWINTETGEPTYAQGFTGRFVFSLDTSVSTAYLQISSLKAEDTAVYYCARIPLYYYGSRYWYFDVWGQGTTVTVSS: 6.7%
133 (antibody, V domains shown, synthetic humanized antibody heavy chain variable region sequence; synthetic humanized antibody light chain variable region sequence) VH: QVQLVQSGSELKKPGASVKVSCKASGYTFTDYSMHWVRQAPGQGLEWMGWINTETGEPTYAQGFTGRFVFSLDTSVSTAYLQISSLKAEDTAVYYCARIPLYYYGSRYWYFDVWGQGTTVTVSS VL: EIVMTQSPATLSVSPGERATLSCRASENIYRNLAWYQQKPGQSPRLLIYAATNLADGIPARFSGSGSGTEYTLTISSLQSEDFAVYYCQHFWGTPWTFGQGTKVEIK: 4.6%

# next molecule below
Per the record, 90 (antibody, V domains shown, constant regions without entry; synthetic humanized antibody light chain variable region sequence; synthetic humanized antibody heavy chain variable region sequence) VL: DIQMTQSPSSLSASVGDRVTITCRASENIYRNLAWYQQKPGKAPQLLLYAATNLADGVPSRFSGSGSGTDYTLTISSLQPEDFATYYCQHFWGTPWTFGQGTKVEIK VH: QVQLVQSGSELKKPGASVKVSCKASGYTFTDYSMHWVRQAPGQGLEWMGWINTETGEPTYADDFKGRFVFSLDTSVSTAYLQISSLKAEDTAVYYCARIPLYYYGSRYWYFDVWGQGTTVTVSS has hEphB1-SEAP-: absorbance at 450 nm, percentage with respect to hEphA4-SEAP-His as 100% of 4.9%
